src = patent US20200247800A1

system-name: human NOX4 (Homo sapiens)
Construct: membrane fraction used
protocol-notes: Cell free membrane based in vitro NOX4 assay: H2O2 production by membranes expressing human NOX4, measured with Amplex Red
assay-conditions: class symbols
pIC50: −log10 of the molar value.
experimental-endpoint: pIC50

Answered examples (2):
> print(dat)
                  compound.structure.string                system.name  experimental.endpoint  measured.result
1  CC(C)Cn1nc(C(F)(F)F)c2c(=O)c(O)c(-c3c(F)cccc3F)[nH]c21  human NOX4 (Homo sapiens)                  pIC50           < 6.82
2  CCc1nn(CCCN2C[C@@H](C)O[C@@H](C)C2)c2[nH]c(-c3c(F)cccc3F)c(O)c(=O)c12  human NOX4 (Homo sapiens)                  pIC50     7.00 to 7.30

Problem: Entry CCc1nn(CCN2CCN(C)CC2)c2[nH]c(-c3ccccc3Cl)c(O)c(=O)c12 : reported pIC50 = ?
Solution: > 7.30

Problem: Which measured pIC50 value corresponds to CCn1nc(C)c2c(=O)c(O)c(-c3ccc(OCC4CC4)cc3F)[nH]c21 ?
Solution: < 6.82

Problem: If you can, please state the reported pIC50 value of CCc1nn(CCN2CCC(F)(F)CC2)c2[nH]c(-c3ccccc3Cl)c(O)c(=O)c12 .
Solution: < 6.82

====

system-name: human NOX4 (Homo sapiens, UniProt Q9NPH5)
Construct: expressed in transfected cells; membrane fraction used
protocol-notes: Cell free membrane based in vitro NOX4 assay: H2O2 production by membranes expressing human NOX4, measured with Amplex Red
Type: biochemical
assay-conditions: 10.0 μM compound, read-out: Percentage inhibition at 10.0 μM
Quick reference for inhibition at 10 µM among some molecules
Numeric only. Scale: %

Sample records with inhibition at 10 µM:
> print(dat)
                                   molecule  measured.result
1  O=c1c(O)c(-c2c(F)cccc2F)[nH]c2c1c(C1CCOCC1)nn2-c1ccc(F)cc1 [Example 204]             99.7
2  Cc1nn(CCN2CCOCC2)c2[nH]c(-c3ccccc3Cl)c(O)c(=O)c12 [Example 2]             81.5
3  COc1ccc(-c2[nH]c3c(c(C(F)(F)F)nn3C)c(=O)c2O)cc1 [Example 53]             84.6
4  Cc1nn(C)c2[nH]c(-c3ccc(Cl)cc3Cl)c(O)c(=O)c12 [Example 11]             76.5
5  CCc1nn(CCN2C[C@@H](C)O[C@@H](C)C2)c2[nH]c(-c3c(F)cccc3F)c(O)c(=O)c12 [Example 200]             90.7

Problem: Any idea what its inhibition at 10 µM is? The molecule is Cn1nc(C(F)(F)F)c2c(=O)c(O)c(-c3ccc(-n4ccnc4)cc3)[nH]c21 [Example 54]
Solution: 94.5

Problem: GET /values?readout=inhibition at 10 µM&item= Cc1nn(CC(F)(F)F)c2[nH]c(-c3ccccc3Cl)c(O)c(=O)c12 [Example 27]
Solution: 100

Problem: Which inhibition at 10 µM is reported for this molecule? CCc1nn(CCN2CCOC(C)(C)C2=O)c2[nH]c(-c3c(F)cccc3F)c(O)c(=O)c12 [Example 184]
Solution: 81.6

====

system-name: human NOX4 (Homo sapiens)
Construct: expressed in transfected cells; membrane fraction used
protocol-notes: Cell free membrane based in vitro NOX4 assay: H2O2 production by membranes expressing human NOX4, measured with Amplex Red
Format: biochemical
assay-conditions: 10.0 μM compound, read-out: Percentage inhibition at 10.0 μM
Experimental: The inhibition of NOX4 activity was measured as inhibition of formation of reactive oxygen species (ROS) from oxygen in cell free assays. […] Protein concentration was determined by Bradford reagent. H202 production by membranes expressing human NOX4 was measured using Amplex Red (Invitrogen) by following a slightly modified version of the manufacturer's instruction manual. […] IC50 value was calculated from concentration response curve by nonlinear regression analysis using GraphPad PRISM software.
inhibition at 10 µM reference
// units = %; emit number, no label

Problem: Requested field: inhibition at 10 µM. Item: Cc1nn(CCCO)c2[nH]c(-c3c(F)cccc3F)c(O)c(=O)c12
Solution: 84.8

Problem: Param item = CCn1nc(C)c2c(=O)c(O)c(-c3ccccc3F)[nH]c21 ; retrieve measured inhibition at 10 µM.
Solution: 61.2

Problem: Tell me the measured inhibition at 10 µM of COCc1nn(C)c2[nH]c(-c3c(F)cccc3F)c(O)c(=O)c12 , please.
Solution: 91.5

Problem: Requested field: inhibition at 10 µM. Item: CCn1nc(C)c2c(=O)c(O)c(-c3cc(F)ccc3F)[nH]c21
Solution: 81.5

Problem: Which inhibition at 10 µM is listed for Cc1nn(C)c2[nH]c(-c3ccccc3Cl)c(O)c(=O)c12 ?
Solution: 89.7

====

Listed here: items and their measured inhibition at 10 µM.
system-name: human NOX4 (Homo sapiens)
Construct: expressed in transfected cells; membrane fraction used
Sequence (Q9NPH5 1-578): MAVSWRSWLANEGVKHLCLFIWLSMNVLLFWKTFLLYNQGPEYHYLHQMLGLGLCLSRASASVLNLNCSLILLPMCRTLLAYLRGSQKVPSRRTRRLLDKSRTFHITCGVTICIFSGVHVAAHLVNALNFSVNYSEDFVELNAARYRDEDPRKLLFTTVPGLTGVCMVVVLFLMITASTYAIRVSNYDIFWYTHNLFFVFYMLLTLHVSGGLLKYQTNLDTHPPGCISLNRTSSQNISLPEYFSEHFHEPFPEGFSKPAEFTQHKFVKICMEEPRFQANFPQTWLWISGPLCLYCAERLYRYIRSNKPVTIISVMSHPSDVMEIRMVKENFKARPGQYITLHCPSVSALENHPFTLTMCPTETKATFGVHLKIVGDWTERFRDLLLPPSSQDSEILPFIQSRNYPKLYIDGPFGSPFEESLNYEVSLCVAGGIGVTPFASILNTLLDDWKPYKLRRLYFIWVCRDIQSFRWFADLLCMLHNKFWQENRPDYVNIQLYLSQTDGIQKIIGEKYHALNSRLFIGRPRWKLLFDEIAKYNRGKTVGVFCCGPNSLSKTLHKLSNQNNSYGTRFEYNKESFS
Sequence (P13498 1-195 partner): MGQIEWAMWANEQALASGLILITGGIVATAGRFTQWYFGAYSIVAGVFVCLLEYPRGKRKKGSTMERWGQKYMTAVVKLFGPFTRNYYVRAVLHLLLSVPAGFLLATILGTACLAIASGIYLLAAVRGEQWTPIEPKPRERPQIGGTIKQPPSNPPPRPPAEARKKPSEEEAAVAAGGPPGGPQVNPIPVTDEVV
protocol-notes: Cell free membrane based in vitro NOX4 assay: H2O2 production by membranes expressing human NOX4, measured with Amplex Red
Type: biochemical
assay-conditions: 10.0 μM compound, read-out: Percentage inhibition at 10.0 μM
Your answer is read as %, so omit the unit and give the number.

// below: answered compounds
> print(dat)
                  compound.structure.string  experimental.endpoint  measured.result
1  COc1ccc(Cl)c(-c2[nH]c3c(c(C)nn3C)c(=O)c2O)c1    inhibition at 10 µM             99.3
2  CC(C)c1nn(C)c2[nH]c(-c3c(F)cccc3F)c(O)c(=O)c12    inhibition at 10 µM             87.1
3  Cc1ccc(F)c(-c2[nH]c3c(c(C)nn3C3CC3)c(=O)c2O)c1F    inhibition at 10 µM             79.6
4  CCc1nn(CCn2cccn2)c2[nH]c(-c3ccccc3Cl)c(O)c(=O)c12    inhibition at 10 µM             98.6
5  Cn1nc(-c2ccc(F)cc2)c2c(=O)c(O)c(-c3c(F)cccc3F)[nH]c21    inhibition at 10 µM             92.3

Problem: # query: inhibition at 10 µM of entry CC(C)CN1CCN(Cc2nn(C)c3[nH]c(-c4c(F)cccc4F)c(O)c(=O)c23)CC1
Solution: 85

Problem: Data request, read-out inhibition at 10 µM, for Cc1cc2c(=O)c(O)c(-c3ccc(F)c(C(F)(F)F)c3)[nH]c2s1
Solution: 100

Problem: Look up inhibition at 10 µM for this compound: Cc1nn(C(C)C)c2[nH]c(-c3ccccc3Cl)c(O)c(=O)c12
Solution: 58.9

Problem: Looking for the measured inhibition at 10 µM of CCn1nc(C(F)F)c2c(=O)c(O)c(-c3c(F)cccc3F)[nH]c21 , can you help?
Solution: 85.1

Problem: Quick one: inhibition at 10 µM of COc1ccc(-c2[nH]c3c(c(C(F)(F)F)nn3C)c(=O)c2O)c(OC)c1 ?
Solution: 86.5

Problem: Consider the compound COc1ccc(-c2[nH]c3c(c(C)nn3C)c(=O)c2O)c(Cl)c1 and give its measured inhibition at 10 µM.
Solution: 78.4

Problem: Could you share which inhibition at 10 µM value was measured for COCCOc1ccc(-c2[nH]c3c(c(C(F)(F)F)nn3C)c(=O)c2O)c(F)c1 ?
Solution: 100

Problem: Query: inhibition at 10 µM; subject: Cn1nc2[nH]c(-c3ccccc3Cl)c(O)c(=O)c2c1Cc1ccccc1F
Solution: 13.5

Problem: Can you look up the measured inhibition at 10 µM of CCc1nn(CCS(C)(=O)=O)c2[nH]c(-c3c(F)cccc3F)c(O)c(=O)c12 for me?
Solution: 90.1

Problem: Quick one: inhibition at 10 µM of CCn1nc(C)c2c(=O)c(O)c(-c3ccccc3OC)[nH]c21 ?
Solution: 63

Problem: Fill blank: measured inhibition at 10 µM of the compound Cn1nc(CN2CCN(CCF)CC2)c2c(=O)c(O)c(-c3c(F)cccc3F)[nH]c21 is ____.
Solution: 97.1

Problem: Which measured inhibition at 10 µM value corresponds to Cc1nn(CCN(C)C)c2[nH]c(-c3ccccc3Cl)c(O)c(=O)c12 ?
Solution: 97.5

Problem: Could you share which inhibition at 10 µM value was measured for CCc1nn(C)c2[nH]c(-c3ccc(OC)cc3Cl)c(O)c(=O)c12 ?
Solution: 73.1

Problem: Fill blank: measured inhibition at 10 µM of the compound Cc1nn(C)c2[nH]c(-c3c(F)cccc3F)c(O)c(=O)c12 is ____.
Solution: 98.7
